- Test system: aldosterone receptor (Rattus norvegicus, UniProt P22199)
- Construct: centrifuged at 105,000 g for 30 minutes, and then a supernatant was collected as a renal soluble fraction
- Sequence (P22199 1-981): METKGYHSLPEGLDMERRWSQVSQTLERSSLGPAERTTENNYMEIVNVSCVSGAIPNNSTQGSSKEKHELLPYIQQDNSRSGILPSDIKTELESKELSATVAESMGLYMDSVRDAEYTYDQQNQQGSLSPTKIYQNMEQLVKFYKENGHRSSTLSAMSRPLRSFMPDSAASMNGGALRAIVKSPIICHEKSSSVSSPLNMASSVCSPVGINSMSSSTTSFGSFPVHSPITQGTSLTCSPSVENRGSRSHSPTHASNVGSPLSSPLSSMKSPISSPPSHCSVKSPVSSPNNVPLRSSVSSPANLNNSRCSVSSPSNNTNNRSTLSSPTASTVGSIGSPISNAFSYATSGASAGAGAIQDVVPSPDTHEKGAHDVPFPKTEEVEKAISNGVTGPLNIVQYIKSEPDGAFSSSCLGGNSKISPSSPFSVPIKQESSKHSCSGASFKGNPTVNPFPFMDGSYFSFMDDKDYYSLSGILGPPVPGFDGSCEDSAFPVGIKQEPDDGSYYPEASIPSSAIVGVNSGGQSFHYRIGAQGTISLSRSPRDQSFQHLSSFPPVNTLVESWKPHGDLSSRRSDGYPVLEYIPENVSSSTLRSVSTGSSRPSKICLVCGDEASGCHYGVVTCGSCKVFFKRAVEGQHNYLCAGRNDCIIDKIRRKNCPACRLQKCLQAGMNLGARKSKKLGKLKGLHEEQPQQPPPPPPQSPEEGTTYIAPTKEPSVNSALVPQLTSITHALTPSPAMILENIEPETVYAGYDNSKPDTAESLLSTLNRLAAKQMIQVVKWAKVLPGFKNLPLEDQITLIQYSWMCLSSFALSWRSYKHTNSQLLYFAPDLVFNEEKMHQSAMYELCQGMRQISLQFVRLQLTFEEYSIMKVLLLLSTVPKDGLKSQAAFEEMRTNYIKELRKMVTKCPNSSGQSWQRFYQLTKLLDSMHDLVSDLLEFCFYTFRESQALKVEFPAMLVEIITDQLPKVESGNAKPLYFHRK
- Protocol text: Binding inhibition test for aldosterone receptor ([3H]aldosterone, rat renal soluble fraction)
- Assay setup: [3H]aldosterone 2 nM, rat renal soluble fraction, in the presence of 2 μM RU-486, 4° C. about 18 hours; read-out: MR IC50
# reported pIC50; entries follow
Scale: negative log10 of molar concentration, which is what pIC50 denotes.

Previously resolved entries follow.
Prompt: # pIC50 lookup, item COc1cc(C(=O)Nc2ccc(-c3ccccc3C(F)(F)F)c(CN3CCC4(C3)OCCO4)c2)ccc1S(N)(=O)=O [Example 395]
Response: 6.72

Prompt: # pIC50 lookup, item CS(=O)(=O)c1ccc(NC(=O)c2ccc(-c3ccccc3OC(F)(F)F)c(CN3CCSCC3)c2)cc1 [Example 136]
Response: 6.40

Next:
Prompt: # pIC50 lookup, item COc1cc(NC(=O)c2ccc(-c3ccccc3C(F)(F)F)c(C(O)C(F)(F)F)c2)ccc1S(N)(=O)=O (stereo not shown) [Example 244]
Response: 6.17

----------
- Test system: aldosterone receptor (Rattus norvegicus, UniProt P22199)
- Construct: centrifuged at 105,000 g for 30 minutes, and then a supernatant was collected as a renal soluble fraction
- Protocol text: Binding inhibition test for aldosterone receptor ([3H]aldosterone, rat renal soluble fraction)
- Assay setup: [3H]aldosterone 2 nM, rat renal soluble fraction, in the presence of 2 μM RU-486, 4° C. about 18 hours; read-out: MR IC50
Measure name: IC50 (nM)
Your answer is read as nM, so omit the unit and give the number.

Prompt: # IC50 lookup, item COc1cc(C(=O)Nc2ccc(-c3ccccc3C(F)(F)F)c(CC#N)c2)ccc1S(N)(=O)=O [Example 363]
Response: 750

Prompt: # IC50 lookup, item COc1cc(NC(=O)c2ccc(-c3ccccc3OC(F)(F)F)c(CN3CCCCCCC3)c2)ccc1S(N)(=O)=O [Example 299]
Response: 140

Prompt: # IC50 lookup, item COc1cc(NC(=O)c2ccc(-c3ccccc3OC(F)(F)F)c(CN3CC(F)(F)C(F)(F)C3)c2)ccc1S(N)(=O)=O [Example 305]
Response: 150

Proceeding to the next compound to report its IC50.
Prompt: # IC50 lookup, item COc1cc(C(=O)Nc2ccc(-c3ccccc3C(F)(F)F)c(CN3CCC(F)CC3)c2)ccc1S(N)(=O)=O [Example 392]
Response: 450
